Numbers sourced from BindingDB's records for doi:10.7270/Q2SN07DK.

target: Beta-galactosidase (Escherichia coli); experiment: PubChem AID 485352
Sequence (Q8VNN2 whole entry): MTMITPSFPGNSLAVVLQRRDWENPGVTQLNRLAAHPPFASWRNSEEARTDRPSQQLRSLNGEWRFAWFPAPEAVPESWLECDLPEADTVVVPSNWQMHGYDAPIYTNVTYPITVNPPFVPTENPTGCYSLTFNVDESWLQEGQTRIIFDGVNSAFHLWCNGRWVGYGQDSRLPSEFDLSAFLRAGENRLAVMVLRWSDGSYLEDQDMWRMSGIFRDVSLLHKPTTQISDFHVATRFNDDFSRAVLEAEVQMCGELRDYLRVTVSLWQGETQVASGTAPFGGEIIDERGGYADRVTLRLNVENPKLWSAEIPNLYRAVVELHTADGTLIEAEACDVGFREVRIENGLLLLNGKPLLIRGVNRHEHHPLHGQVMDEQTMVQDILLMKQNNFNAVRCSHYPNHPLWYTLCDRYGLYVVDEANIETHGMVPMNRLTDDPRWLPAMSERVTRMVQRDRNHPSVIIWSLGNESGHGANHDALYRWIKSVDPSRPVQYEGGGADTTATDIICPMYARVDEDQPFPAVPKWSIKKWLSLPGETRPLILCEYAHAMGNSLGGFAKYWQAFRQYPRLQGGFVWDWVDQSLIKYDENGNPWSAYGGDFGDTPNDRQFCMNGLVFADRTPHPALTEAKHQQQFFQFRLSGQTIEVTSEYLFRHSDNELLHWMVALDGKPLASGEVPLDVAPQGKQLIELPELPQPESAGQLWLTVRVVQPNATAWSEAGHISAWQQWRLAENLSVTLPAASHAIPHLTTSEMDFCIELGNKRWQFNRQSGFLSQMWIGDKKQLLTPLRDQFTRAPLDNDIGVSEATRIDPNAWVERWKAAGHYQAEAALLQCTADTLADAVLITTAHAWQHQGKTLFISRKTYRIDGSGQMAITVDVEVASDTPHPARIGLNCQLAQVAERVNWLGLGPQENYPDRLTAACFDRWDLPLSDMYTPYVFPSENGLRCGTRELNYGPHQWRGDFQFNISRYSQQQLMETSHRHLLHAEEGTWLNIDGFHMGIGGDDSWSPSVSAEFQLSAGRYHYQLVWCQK
assay_endpoint: EC50 (µM)
Just the number please, in µM, no unit attached.

Q: Give recorded EC50. CCOC(=O)C1C(C)=NC2=C(C(=O)CC(c3cccs3)C2)C1c1cccs1 (stereo unspecified)
A: 39.3
